Test: Human dose prediction (human PK parameter estimation)
Conditions: plasma, read-out: half-life, estimated (human) (converted)
assay metric: half-life

[Q] Name the recorded half-life for NC1(C(=O)N[C@@H](CCO)c2ccc(Cl)cc2)CCN(c2ncnc3[nH]ccc23)CC1 .
[A] ~6 h

FYI, the data here is from patent US11236095B2.
